Measured IC50 accompanies every entry in the list below.
- EXPERIMENTAL_SYSTEM: HIF-2α HIS TAG-PASB Domain (Homo sapiens, UniProt Q99814)
- Construct: 100 nM HIF-2α HIS TAG-PASB Domain
- Sequence (Q99814 240-350 limits assumed): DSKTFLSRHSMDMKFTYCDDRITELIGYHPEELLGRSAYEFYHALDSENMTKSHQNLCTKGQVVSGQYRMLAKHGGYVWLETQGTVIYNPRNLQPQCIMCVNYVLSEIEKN
- METHOD_DESCRIPTION: HIF-2α Scintillation Proximity Assay (SPA)
- Type: binding
- CONDITION_NOTES: Scintillation Proximity Assay IC50 (nM)
- Description: The total assay volume was about 100 μL in the following configuration: 2 μL compound in 100% DMSO, 88 μL buffer with protein and probe and 10 μL of SPA beads. […] The percent inhibition was determined and IC50 values were calculated using the Dotmatics system based on the following equation: % inhibition=[(high control−sample)/(high control−low control)]×100.
EXPERIMENTAL_READOUT: IC50

{"MOLECULE": "O=S1(=O)c2ccc(Oc3cc(F)cc(Cl)c3)cc2C(O)C1(F)F (centres unmarked)", "RESULT": "> 1000 nM"}
{"MOLECULE": "CS(=O)(=O)c1ccc(Oc2cc(F)cc(Cl)c2)c(Br)c1", "RESULT": "> 1000 nM"}
{"MOLECULE": "N#Cc1cc(F)cc(Oc2ccc(S(=O)(=O)C(F)(F)F)c3c2CC(F)(F)[C@H]3O)c1", "RESULT": "< 50 nM"}
{"MOLECULE": "NCc1c(S(=O)(=O)C(F)F)ccc(Oc2cc(F)cc(Cl)c2)c1Br", "RESULT": "> 1000 nM"}
{"MOLECULE": "O=S(=O)(c1ccc(Oc2cc(F)cc(Cl)c2)c(Br)c1)C(F)F", "RESULT": "250 to 1000 nM"}
{"MOLECULE": "Cc1c(Oc2cc(F)cc(Cl)c2)ccc2c1C(O)C(F)(F)S2(=O)=O (centres unmarked)", "RESULT": "< 50 nM"}
{"MOLECULE": "COC(=O)c1cc(S(=O)(=O)C(F)(F)F)ccc1Oc1cc(F)cc(Cl)c1", "RESULT": "> 1000 nM"}
{"MOLECULE": "CS(=O)(=O)c1ccc(Oc2cc(F)cc(C#N)c2)c2c1C(O)C(F)(F)CC2 (centres unmarked)", "RESULT": "> 1000 nM"}
{"MOLECULE": "[2H]C1(O)c2c(ccc(Oc3cc(F)cc(Cl)c3)c2C(F)F)S(=O)(=O)C1(F)F (centres unmarked)", "RESULT": "< 50 nM"}
{"MOLECULE": "O=S(=O)(c1ccc(Oc2cc(F)cc(Cl)c2)c2c1[C@H](O)C(F)(F)C2)C(F)F", "RESULT": "< 50 nM"}
{"MOLECULE": "O=S1(=O)c2ccc(Oc3cc(F)cc(Cl)c3)c(Br)c2[C@H](O)C1(F)F", "RESULT": "50 to 249 nM"}
{"MOLECULE": "N#Cc1cc(F)cc(Oc2ccc3c(c2C(F)F)C(=O)C(F)(F)S3(=O)=O)c1", "RESULT": "> 1000 nM"}
{"MOLECULE": "O=S1(=O)c2ccc(Oc3cc(F)cc(Cl)c3)c(Br)c2C(O)C1(F)F (centres unmarked)", "RESULT": "< 50 nM"}
{"MOLECULE": "O=S1(=O)c2ccc(Oc3cc(F)cc(Cl)c3)c(C(F)F)c2C(O)C1(F)F (centres unmarked)", "RESULT": "< 50 nM"}
{"MOLECULE": "N#Cc1cncc(Oc2ccc3c(c2C(F)F)C(O)C(F)(F)S3(=O)=O)c1 (centres unmarked)", "RESULT": "50 to 249 nM"}
{"MOLECULE": "O=S1(=O)c2ccc(Oc3cc(F)cc(Cl)c3)c(C(F)(F)F)c2C(O)C1(F)F (centres unmarked)", "RESULT": "< 50 nM"}
{"MOLECULE": "O=S1(=O)c2ccc(Oc3cncc(Cl)c3)c(C(F)F)c2C(O)C1(F)F (centres unmarked)", "RESULT": "50 to 249 nM"}
{"MOLECULE": "N#Cc1cc(S(=O)(=O)C(F)(F)F)ccc1Oc1cc(F)cc(Cl)c1", "RESULT": "50 to 249 nM"}
{"MOLECULE": "O=S(=O)(c1ccc(Oc2cc(F)cc(Cl)c2)c2c1C(O)C(F)(F)C2)C(F)F (centres unmarked)", "RESULT": "< 50 nM"}
{"MOLECULE": "CC1(C)C(O)c2c(ccc(Oc3cc(F)cc(Cl)c3)c2Br)S1(=O)=O (centres unmarked)", "RESULT": "> 1000 nM"}
{"MOLECULE": "O=S(=O)(c1ccc(Oc2cc(F)cc(Cl)c2)c(Cl)c1)C(F)(F)F", "RESULT": "50 to 249 nM"}
{"MOLECULE": "O=S(=O)(c1ccc(Oc2cc(F)cc(Cl)c2)c(Br)c1)C(F)(F)F", "RESULT": "50 to 249 nM"}
{"MOLECULE": "O=S1(=O)CCC(O)c2c1ccc(Oc1cc(F)cc(F)c1)c2C(F)F (centres unmarked)", "RESULT": "> 1000 nM"}
{"MOLECULE": "O=S(=O)(c1ccc(Oc2cc(F)cc(Cl)c2)c(CO)c1)C(F)(F)F", "RESULT": "> 1000 nM"}
{"MOLECULE": "O=S1(=O)c2ccc(Oc3cc(F)cc(Cl)c3)c(Br)c2[C@@H](O)C1(F)F", "RESULT": "< 50 nM"}
{"MOLECULE": "NC(=O)c1cc(S(=O)(=O)C(F)(F)F)ccc1Oc1cc(F)cc(Cl)c1", "RESULT": "> 1000 nM"}
{"MOLECULE": "N#Cc1cc(F)cc(Oc2ccc(S(=O)(=O)CF)c3c2CC(F)(F)[C@H]3O)c1", "RESULT": "< 50 nM"}
{"MOLECULE": "O=Cc1cc(S(=O)(=O)C(F)(F)F)ccc1Oc1cc(F)cc(Cl)c1", "RESULT": "< 50 nM"}
{"MOLECULE": "N#Cc1c(Oc2cc(F)cc(Cl)c2)ccc2c1C(O)C(F)(F)S2(=O)=O (centres unmarked)", "RESULT": "< 50 nM"}

====

- EXPERIMENTAL_SYSTEM: HIF-2α HIS TAG-PASB Domain (Homo sapiens)
- Construct: 100 nM HIF-2α HIS TAG-PASB Domain
- METHOD_DESCRIPTION: HIF-2α Scintillation Proximity Assay (SPA)
- Type: binding
- CONDITION_NOTES: read-out: Scintillation Proximity Assay IC50
EXPERIMENTAL_READOUT: IC50

{"COMPOUND": "N#Cc1cncc(-c2ccc(S(=O)(=O)C(F)(F)F)c3c2CC(F)(F)[C@H]3O)c1 [Compound 570]", "EXPERIMENTAL_READOUT": "IC50", "RESULT": "> 1 µM"}
{"COMPOUND": "O/N=C1/c2c(C(F)(F)F)ccc(OC3CC(F)(F)C3)c2CC1(F)F [Compound 672]", "EXPERIMENTAL_READOUT": "IC50", "RESULT": "0.05 to 0.249 µM"}
{"COMPOUND": "CS(=O)(=O)c1ccc(Oc2cc(C#N)cc(C(F)F)c2)c2c1C(O)CC2 (centres unmarked) [Compound 249]", "EXPERIMENTAL_READOUT": "IC50", "RESULT": "0.25 to 1 µM"}
{"COMPOUND": "N#Cc1cc(F)cc(Oc2ccc3c(c2C#N)C(O)(C(F)(F)F)CS3(=O)=O)c1 (centres unmarked) [Compound 450]", "EXPERIMENTAL_READOUT": "IC50", "RESULT": "> 1 µM"}
{"COMPOUND": "O=C1CC[C@H](Oc2ccc(S(=O)(=O)C(F)(F)F)c3c2CC(F)(F)[C@H]3O)CN1 [Compound 719]", "EXPERIMENTAL_READOUT": "IC50", "RESULT": "> 1 µM"}
{"COMPOUND": "N#C[C@H]1C[C@@H](Oc2ccc(S(=O)(=O)C(F)(F)F)c3c2CC(F)(F)[C@H]3O)C1 [Compound 787]", "EXPERIMENTAL_READOUT": "IC50", "RESULT": "< 0.05 µM"}
{"COMPOUND": "NC(=O)COc1ccc(S(=O)(=O)C(F)(F)F)c2c1CC(F)(F)C2O (centres unmarked) [Compound 640]", "EXPERIMENTAL_READOUT": "IC50", "RESULT": "> 1 µM"}
{"COMPOUND": "O=C1c2c(ccc(Oc3cc(F)cc(Cl)c3)c2Br)S(=O)(=O)C12CC2 [Compound 404]", "EXPERIMENTAL_READOUT": "IC50", "RESULT": "> 1 µM"}
